System: GM15850
Assay Explanation: Cytoprotective activity against diethyl maleate-induced oxidative stress in Friedreich's ataxia disease patient GM15850 cells assessed as cell viability at 0.5 uM preincubated for 15 hrs prior to diethyl maleate-challenge measured after 6 hrs by hemocytometer-based assay
Type: functional
Experimental Parameters: Homo sapiens
The source made the active and inactive calls. The rule behind the calls is not given here.
Tick one outcome: 1 (active), 0 (inactive)

INSERT INTO measurements (smiles_text, answer_label) VALUES
  ('CCCCCCCCCCCCCCCCc1nc(N(C)C)nc(C)c1O', 1),
  ('CCCCCCCCCCc1nc(N(C)C)nc(C)c1O', 1),
  ('COC1=C(OC)C(=O)C(CCCCCCCCCCO)=C(C)C1=O', 0);

Request: Test call for this compound, please: `CCCCCCCCCCC1=C(C)C(=O)C(OC)=C(OC)C1=O`
Result: 1
